# Target System: Tyrosine-protein kinase ABL1 (Homo sapiens)
# Measurement Setup: at 0.1 µM
# Description: GSK_PKIS: ABL1 mean inhibition at 0.1 uM [Nanosyn]
The threshold is inclusive: inhibition of exactly 10% counts as satisfied; values below receive not satisfied.

Some entries whose results are on file:
Inquiry: Could you tell me if the measured inhibition of "c1ccc(Nc2ncc(-c3ccccc3)o2)cc1" reaches 10% or more?
Reply text: not satisfied

Inquiry: Could you tell me if the measured inhibition of "NC(=O)c1cccc(Nc2nccc(Nc3cccc(F)c3)n2)c1" reaches 10% or more?
Reply text: satisfied

Inquiry: Could you tell me if the measured inhibition of "COc1cc2ncn(-c3cc(OCc4ccccc4S(C)(=O)=O)c(C#N)s3)c2cc1OC" reaches 10% or more?
Reply text: not satisfied

Inquiry: Could you tell me if the measured inhibition of "CCn1c(-c2nonc2N)nc2ccc(F)cc21" reaches 10% or more?
Reply text: not satisfied

Inquiry: Could you tell me if the measured inhibition of "C[C@@H](Oc1cc(-n2cnc3ccc(OC[C@@H](O)CO)cc32)sc1C(N)=O)c1ccccc1Cl" reaches 10% or more?
Reply text: not satisfied

---
Inquiry: Could you tell me if the measured inhibition of "Nc1nccc(-c2c(-c3ccc(F)cc3)ncn2CCCN2CCOCC2)n1" reaches 10% or more?
Reply text: not satisfied

Inquiry: Could you tell me if the measured inhibition of "COc1cc(Nc2nccc(-c3cnn4ncccc34)n2)cc(OC)c1" reaches 10% or more?
Reply text: not satisfied

Inquiry: Could you tell me if the measured inhibition of "C[C@@H](Oc1cc(-n2cnc3ccc(OCC4CCN(C)CC4)cc32)sc1C(N)=O)c1ccccc1C(F)(F)F" reaches 10% or more?
Reply text: not satisfied

Inquiry: Could you tell me if the measured inhibition of "COc1cc(/C=N/Nc2ncnc3c2cnn3C(C)C)ccc1O" reaches 10% or more?
Reply text: satisfied
